src = patent US10047084B2

system: MV-4-11; experiment: CTG cell survival assay, MV-4-11; type: cell-based; settings: Homo sapiens, MV4-11, MV-4-11 cells

| compound | EC50 |
| --- | --- |
| Cn1cc(-c2ccc(-c3ccc4ncc5c(c4c3)n(-c3ccc(C(C)(C)C(=O)O)cc3)c(=O)n5C)cn2)cn1 | 100 nM |
| Cn1c(=O)n([C@H]2CCN(S(C)(=O)=O)C2)c2c3cc(-c4ccc(-n5cccn5)nc4)ccc3ncc21 | 40 nM |
| Cn1ccc(-c2ccc(-c3ccc4ncc5c(c4c3)n([C@H]3CCN(S(C)(=O)=O)C3)c(=O)n5C)cn2)n1 | < 100 nM |
| Cn1cc(-c2ccc(-c3ccc4ncc5c(c4c3)n(C3CCN(S(C)(=O)=O)CC3)c(=O)n5C)cn2)nn1 | < 100 nM |
| Cn1c(=O)n([C@H]2CC[C@@H](O)CC2)c2c3cc(-c4ccc(N)nc4)ccc3ncc21 | < 50 nM |
| Cn1c(=O)n([C@H]2CC[C@@H](O)CC2)c2c3cc(-c4cnn(-c5ccccc5)c4)ccc3ncc21 | < 200 nM |
| Cn1cc(-c2ccc(-c3ccc4ncc5c(c4c3)n([C@@H]3CCCN(S(C)(=O)=O)C3)c(=O)n5C)cn2)cn1 | < 100 nM |
| Cn1cc(-c2ccc(-c3ccc4ncc5c(c4c3)n(C3CCCN(S(C)(=O)=O)C3)c(=O)n5C)cn2)cn1 (stereo not shown) | < 200 nM |
| CC(=O)N[C@H]1CC[C@@H](n2c(=O)n(C)c3cnc4ccc(-c5ccc(-c6cnn(C)c6)nc5)cc4c32)CC1 | < 500 nM |
| Cn1cc(-c2ccc(-c3ccc4ncc5c(c4c3)n([C@H]3CCN(S(C)(=O)=O)C3)c(=O)n5C)cn2)cn1 | < 100 nM |
| C[C@H](O)C(=O)N1CCCC(n2c(=O)n(C)c3cnc4ccc(-c5ccc(-c6cnn(C)c6)nc5)cc4c32)C1 (stereo partly shown) | < 500 nM |
| Cn1cc(-c2ccc(-c3ccc4ncc5c(c4c3)n(C3CC4CCC(C3)N4S(C)(=O)=O)c(=O)n5C)cn2)cn1 (stereo not shown) | < 20 nM |
| Cn1cc(-c2ccc(-c3ccc4ncc5c(c4n3)n([C@@H]3CCCN(S(C)(=O)=O)C3)c(=O)n5C)cn2)cn1 | < 20 nM |
| [2H]C([2H])([2H])n1c(=O)n(C2CCCN(S(C)(=O)=O)C2)c2c3cc(-c4ccc(-c5cnn(C)c5)nc4)ccc3ncc21 (stereo not shown) | < 200 nM |
| Cn1cc(-c2ccc(-c3ccc4ncc5c(c4c3)n([C@H]3CC[C@@H](NS(C)(=O)=O)CC3)c(=O)n5C)cn2)cn1 | < 200 nM |
| Cn1cc(-c2ccc(-c3ccc4ncc5c(c4c3)n(C3CC4CCC(C3)N4S(C)(=O)=O)c(=O)n5C)cn2)nn1 (stereo not shown) | < 20 nM |
| Cn1cc(-c2ccc(-c3ccc4ncc5c(c4c3)n(C3CCCN(C(=O)CO)C3)c(=O)n5C)cn2)cn1 (stereo not shown) | < 1000 nM |
| Cn1cc(-c2ccc(-c3ccc4ncc5c(c4c3)n([C@H]3CC[C@@H](C(=O)O)CC3)c(=O)n5C)cn2)cn1 | < 500 nM |
| Cn1cc(-c2ccc(-c3ccc4ncc5c(c4n3)n(C3CCCN(S(C)(=O)=O)C3)c(=O)n5C)cn2)cn1 (stereo not shown) | < 50 nM |
| C[C@@H](O)C(=O)N1CCCC(n2c(=O)n(C)c3cnc4ccc(-c5ccc(-c6cnn(C)c6)nc5)cc4c32)C1 (stereo partly shown) | < 500 nM |
| CCS(=O)(=O)N1CCC[C@@H](n2c(=O)n(C)c3cnc4ccc(-c5ccc(-c6cnn(C)c6)nc5)cc4c32)C1 | < 30 nM |
| Cn1cc(-c2ccc(-c3ccc4ncc5c(c4c3)n([C@H]3CC[C@@H](O)CC3)c(=O)n5C)cn2)cn1 | < 100 nM |
| CCS(=O)(=O)N1CC[C@H](n2c(=O)n(C)c3cnc4ccc(-c5ccc(-c6cnn(C)c6)nc5)cc4c32)C1 | < 100 nM |
| COc1ncc(-c2ccc3ncc4c(c3c2)n([C@H]2CC[C@@H](O)CC2)c(=O)n4C)cc1C | < 200 nM |
| Cn1cc(-c2ccc(-c3ccc4ncc5c(c4c3)n([C@H]3CC[C@H](O)CC3)c(=O)n5C)cn2)cn1 | < 500 nM |
| Cn1c(=O)n([C@H]2CC[C@@H](O)CC2)c2c3cc(-c4ccc(-c5ccccc5)nc4)ccc3ncc21 | < 200 nM |
| Cn1c(=O)n([C@H]2CC[C@H](O)CC2)c2c3cc(-c4cnn(-c5ccccc5)c4)ccc3ncc21 | < 500 nM |
| Cc1ccc(-c2ccc3ncc4c(c3c2)n([C@H]2CC[C@@H](O)CC2)c(=O)n4C)cn1 | < 200 nM |
